test: Pharmacokinetics in mice plasma (LC-MS/MS); format: in vivo; details: mouse, plasma, iv
readout_name: Tmax (min)
Give the value, in units of min, as a plain number.

For the compound CCCCCCNC(=N)NC(=N)NCc1ccccc1 [HBB, N1-hexyl-N5-benzyl-biguanide] , report Tmax.
1

* * *

test system: T47D; assay: Inhibition of mammary carcinoma cell line T47D; format: cell-based; details: Table 5, human, ERα+, HER2−
readout_name: IC50 (µM)
Give the value, in units of µM, as a plain number.

For the compound CCCCCCNC(=N)NC(=N)NCc1ccccc1 [HBB, N1-hexyl-N5-benzyl-biguanide] , report IC50.
22

* * *

target: CYP3A4 (Homo sapiens, UniProt P08684); test: CYP3A4 Supersome mediated EET biosynthesis; format: biochemical; parameters: purchased Corning; host or cells: insect cells (microsomes); settings: FIG. 1; (±)11,12-EET; curve fitting; read-out: IC50 for (±)11,12-EET biosynthesis
Sequence (P08684 whole entry): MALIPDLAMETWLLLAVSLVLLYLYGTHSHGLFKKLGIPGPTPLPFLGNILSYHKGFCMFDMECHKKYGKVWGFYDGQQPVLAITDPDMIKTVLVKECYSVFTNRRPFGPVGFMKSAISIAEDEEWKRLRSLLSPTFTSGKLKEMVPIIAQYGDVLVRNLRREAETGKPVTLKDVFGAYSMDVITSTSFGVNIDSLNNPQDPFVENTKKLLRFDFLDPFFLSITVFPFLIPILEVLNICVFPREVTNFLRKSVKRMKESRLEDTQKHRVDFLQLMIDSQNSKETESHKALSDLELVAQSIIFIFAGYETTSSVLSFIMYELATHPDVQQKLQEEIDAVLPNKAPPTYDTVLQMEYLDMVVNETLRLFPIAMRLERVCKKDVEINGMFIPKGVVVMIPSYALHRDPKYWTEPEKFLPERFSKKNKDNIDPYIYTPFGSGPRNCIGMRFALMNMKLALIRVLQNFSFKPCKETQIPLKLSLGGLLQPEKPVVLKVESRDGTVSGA
readout_name: IC50 (µM)
Give the value, in units of µM, as a plain number.

For the compound CCCCCCNC(=N)NC(=N)NCC12C3C4C5C3C1C5C42 (stereo not shown) [HCB, Hexyl Cubanomethyl Biguanide] , report IC50.
26.5

* * *

target: CYP3A4 (Homo sapiens); assay: CYP3A4 Supersome mediated EET biosynthesis; type: biochemical; set-up: purchased Corning; host or cells: insect cells (microsomes); details: (±)11,12-EET; Example B text; read-out: IC50, CYP3A4 biosynthesis of (±)11,12-EET
readout_name: pIC50
# pIC50 is unitless: minus log10 of the molar concentration; print number only

For the compound CCCCCCNC(=N)NC(=N)NCC12C3C4C5C3C1C5C42 (stereo not shown) [HCB, Hexyl Cubanomethyl Biguanide] , report pIC50.
4.25

* * *

Kindly supply the reported CC50 at 48 h values for the records listed here.
assay: in vitro; conditions: African green monkey, Vero E6 cells

For the compound CCCCCCNC(=N)NC(=N)NCc1ccccc1 [HBB, N1-hexyl-N5-benzyl-biguanide] , report CC50 at 48 h.
> 20 µM

For the compound "CCC(CC)COC(=O)[C@H](C)N[P@](=O)(OC[C@H]1O[C@@](C#N)(c2ccc3c(N)ncnn23)[C@H](O)[C@@H]1O)Oc1ccccc1" , report CC50 at 48 h.
> 20 µM

For the compound CCCCCCNC(=N)NC(=N)NCC12C3C4C5C3C1C5C42 (stereo not drawn) [HCB, Hexyl Cubanomethyl Biguanide] , report CC50 at 48 h.
13.3 µM

* * *

target: UniProt P08684; assay: CYP3A4 Supersome mediated EET biosynthesis; assay type: biochemical; design: purchased Corning; host or cells: insect cells (microsomes); conditions: (±)8,9-EET; Example B text; read-out: IC50, CYP3A4 biosynthesis of (±)8,9-EET
readout_name: IC50 (µM)
Give the value, in units of µM, as a plain number.

For the molecule CCCCCCNC(=N)NC(=N)NCC12C3C4C5C3C1C5C42 (stereo not shown) [HCB, Hexyl Cubanomethyl Biguanide] , report IC50.
28

* * *

test system: LR/FR MCF7A1C cells; test: Crystal violet cell proliferation assay, LR,FR-MCF7AC1; assay type: cell-based, human; conditions: Homo sapiens, 72 h, read-out: IC50, LR/FR MCF7A1C cells
readout_name: IC50 (µM)
Give the value, in units of µM, as a plain number.

For the compound CCCCCCNC(=N)NC(=N)NCc1ccccc1 [HBB, N1-hexyl-N5-benzyl-biguanide] , report IC50.
3.9

* * *

tested on: LR/FR MCF7A1C cells; assay: Crystal violet cell proliferation assay, LR,FR-MCF7AC1; assay type: cell-based, human; details: Homo sapiens; letrozole- and fulvestrant-resistant; 72 hours, crystal violet; read-out: IC50, LR/FR MCF7A1C cells
readout_name: pIC50
# pIC50 is unitless: minus log10 of the molar concentration; print number only

Find pIC50 for CCCCCCNC(=N)NC(=N)NCC12C3C4C5C3C1C5C42 (stereo not shown) [HCB, Hexyl Cubanomethyl Biguanide] on LR/FR MCF7A1C cells and write it down.
5.89

* * *

assay: Pharmacokinetics in mice plasma (LC-MS/MS); assay type: in vivo; conditions: mouse, plasma, iv
readout_name: Cmax
Note: a bare number is incomplete; add the unit.

For the molecule CCCCCCNC(=N)NC(=N)NCc1ccccc1 [HBB, N1-hexyl-N5-benzyl-biguanide] , report Cmax.
20100 ng/mL

* * *

test: Pharmacokinetics in mice plasma (LC-MS/MS); type: in vivo; conditions: mouse, plasma, sc
readout_name: Tmax (min)
Give the value, in units of min, as a plain number.

For the compound CCCCCCNC(=N)NC(=N)NCc1ccccc1 [HBB, N1-hexyl-N5-benzyl-biguanide] , report Tmax.
5

* * *

Target: CYP2C8 (Homo sapiens, UniProt P10632)
Construct: purchased Corning; host or cells: insect cells (microsomes)
Sequence (P10632 1-490): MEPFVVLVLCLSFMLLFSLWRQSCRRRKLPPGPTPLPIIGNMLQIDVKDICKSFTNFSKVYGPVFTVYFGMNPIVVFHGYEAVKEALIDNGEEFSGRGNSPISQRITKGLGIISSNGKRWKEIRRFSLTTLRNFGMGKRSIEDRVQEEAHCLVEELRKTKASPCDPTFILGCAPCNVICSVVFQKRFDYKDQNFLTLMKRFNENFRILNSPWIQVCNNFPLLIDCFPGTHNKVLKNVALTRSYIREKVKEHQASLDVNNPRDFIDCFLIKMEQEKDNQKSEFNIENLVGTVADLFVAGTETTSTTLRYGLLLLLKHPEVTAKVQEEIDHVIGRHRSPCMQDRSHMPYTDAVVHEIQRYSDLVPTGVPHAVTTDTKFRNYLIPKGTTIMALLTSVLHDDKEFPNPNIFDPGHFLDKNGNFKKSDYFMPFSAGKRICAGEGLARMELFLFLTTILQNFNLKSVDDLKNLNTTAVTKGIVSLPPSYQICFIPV
Test: CYP2C8-mediated arachidonic acid epoxygenase EET biosynthesis
Format: biochemical
Details: (±)8,9-EET; read-out: IC50, CYP2C8 biosynthesis of (±)8,9-EET
readout_name: pIC50
# pIC50 is unitless: minus log10 of the molar concentration; print number only

For the compound CCCCCCNC(=N)NC(=N)NCC12C3C4C5C3C1C5C42 (stereo not shown) [HCB, Hexyl Cubanomethyl Biguanide] , report pIC50.
4.51

* * *

assay: Cytotoxicity assay in 293T/ACE2 cells; conditions: human, HEK293T/17 cells expressing human ACE2
Kindly supply the reported CC50 values for the records listed here.
Give the value, in units of µM, as a plain number.

For the compound CCCCCCNC(=N)NC(=N)NCc1ccccc1 [HBB, N1-hexyl-N5-benzyl-biguanide] , report CC50.
26

For the compound CCCCCCNC(=N)NC(=N)NCC12C3C4C5C3C1C5C42 (stereo not drawn) [HCB, Hexyl Cubanomethyl Biguanide] , report CC50.
7.2

* * *

target: CYP3A4 (Homo sapiens, UniProt P08684); assay: CYP3A4 Supersome mediated EET biosynthesis; format: biochemical; design: purchased Corning; host or cells: insect cells (microsomes); settings: FIG. 1; (±)14,15-EET; arachidonic acid 60 μM, CYP3A4 Supersome 1 μM, 30 min; curve fitting; read-out: IC50 for (±)14,15-EET biosynthesis
readout_name: pIC50
# pIC50 is unitless: minus log10 of the molar concentration; print number only

Find pIC50 for CCCCCCNC(=N)NC(=N)NCC12C3C4C5C3C1C5C42 (stereo not shown) [HCB, Hexyl Cubanomethyl Biguanide] on CYP3A4 (Homo sapiens, UniProt P08684) and write it down.
5.33

* * *

target: CYP3A4 (Homo sapiens); assay: CYP3A4 binding by Soret band spin shift analysis; conditions: FIG. 16, read-out: estimated Kd
Sequence (P08684 with tags, fused parts or gaps): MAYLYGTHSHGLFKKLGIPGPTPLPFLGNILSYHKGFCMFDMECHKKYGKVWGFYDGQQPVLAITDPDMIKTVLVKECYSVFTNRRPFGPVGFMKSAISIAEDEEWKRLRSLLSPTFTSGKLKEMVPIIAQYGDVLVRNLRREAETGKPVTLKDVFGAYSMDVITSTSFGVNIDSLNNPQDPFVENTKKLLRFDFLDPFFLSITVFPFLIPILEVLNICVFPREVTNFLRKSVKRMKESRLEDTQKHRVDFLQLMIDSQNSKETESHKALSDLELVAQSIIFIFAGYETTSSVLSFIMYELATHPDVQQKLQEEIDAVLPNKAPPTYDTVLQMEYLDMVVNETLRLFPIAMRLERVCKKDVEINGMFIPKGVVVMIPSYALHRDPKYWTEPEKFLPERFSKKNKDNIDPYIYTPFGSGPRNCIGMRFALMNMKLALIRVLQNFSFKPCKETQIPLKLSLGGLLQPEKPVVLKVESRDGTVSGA
readout_name: pKd
# pKd is unitless: minus log10 of the molar concentration; print number only

For the compound CCCCCCNC(=N)NC(=N)NCC12C3C4C5C3C1C5C42 (stereo not shown) [HCB, Hexyl Cubanomethyl Biguanide] , report pKd.
4.13

* * *

molecular target: CYP2C8 (Homo sapiens, UniProt P10632); construct: purchased Corning; host or cells: insect cells (microsomes); experiment: CYP2C8-mediated arachidonic acid epoxygenase EET biosynthesis; assay type: biochemical; conditions: (±)14,15-EET; read-out: inhibition of CYP2C8-mediated biosynthesis of (±)14,15-EET
readout_name: IC50 (µM)
Give the value, in units of µM, as a plain number.

For the compound CCCCCCNC(=N)NC(=N)NCC12C3C4C5C3C1C5C42 (stereo not shown) [HCB, Hexyl Cubanomethyl Biguanide] , report IC50.
42

* * *

experiment: Toxicity / tolerance of dosing in mice; format: in vivo; conditions: female, CD-1 (Study 1), BALB/c (Study 2), C57BL/6 (Study 3), mouse, in vivo; sc, daily
readout_name: MTD (mg/kg)
Give the value, in units of mg/kg, as a plain number.

For the molecule CCCCCCNC(=N)NC(=N)NCc1ccccc1 [HBB, N1-hexyl-N5-benzyl-biguanide] , report MTD.
12
